Assay: blockers of DNA damage checkpoint Chk1 activation – imaging, HeLa, hydroxyurea, phospho-Chk1 nuclear intensity, primary screen (AID 1187); note: test concentration not given here
Conditions: hydroxyurea-induced phospho-Chk1 immunofluorescence imaging, higher = more signal
Think of 0.1 as a floor: if z-score stands on it or above, it is rule met; beneath it, rule not met.

# compound, class
rows = [
    ("[N-]=[N+]=Nc1ccccc1[C@H]1OC(c2ccc(OCCCO)cc2)=N[C@@]1(CCS(=O)(=O)c1ccccc1)C(=O)N1CCOCC1", "rule not met"),
    ("COCCOC(=O)N1C(=O)[C@@]2(c3cc(C#CCCO)ccc31)[C@H](c1ccc(O)cc1)N1[C@H](c3ccccc3)[C@H](c3ccccc3)OC(=O)[C@H]1[C@@H]2C(=O)N1CCCCCCC1", "rule not met"),
    ("C=CCC(OC(C)=O)[C@@H]1[C@@H](N(Cc2cc3ccccc3o2)C(=O)c2cccc3ccccc23)c2cc(OCCCO)ccc2N1C(=O)Cc1ccc2ccccc2c1 (stereo partly specified)", "rule met"),
    ("COCCOC(=O)N1C(=O)[C@@]2(c3cc(C#CCC(C(=O)OC)C(=O)OC)ccc31)[C@H](c1ccc(OCCO)cc1)N1[C@H](c3ccccc3)[C@H](c3ccccc3)OC(=O)[C@H]1[C@@H]2C(=O)NC[C@H](O)c1ccccc1", "rule not met"),
    ("Cc1ccc(S[C@]2(C(=O)NCCN3CCOCC3)CC(=O)N(C3CCCCC3)[C@@H]2c2ccc(CO)cc2)cc1", "rule met"),
    ("CC(C)N1C(=O)c2ccccc2[C@](C)(C(=O)NCCCN(C)C)[C@@H]1c1ccc(CO)cc1", "rule met"),
]
